- Tested on: M14 melanoma
- Experimental protocol: NCI tumour cell line growth inhibition, 48 h
# TGI annotations
Supply the numeric figure in µM, leaving out any unit text.

Sample records with TGI:
{"columns": ["Compound string", "Reported endpoint", "Measured value"],
 "data": [
  ["O=C1/C(=C/c2ccc(O)cc2)COc2ccc(-c3ccccc3)cc21", "TGI", 39.1],
  ["COc1cc(Nc2nc(N[C@H]3CCCC[C@@H]3N)nc3cc[nH]c(=O)c23)cc(OC)c1", "TGI", 2.16]
]}

Okay, now this compound:
TGI recorded for this compound, CN(C)CCOc1ccc2c(c1)C/C(=C/c1ncc([N+](=O)[O-])n1C)C2=O , is 5.71

====

- Tested on: OVCAR-4 ovarian
- Experimental protocol: NCI tumour cell line growth inhibition, 48 h
Reported endpoint: TGI

Solved entries (count: 6):
{"columns": ["Compound", "TGI"],
 "data": [
  ["Cc1nc2c(sc3nc4ccccc4n32)c(=O)[nH]1", "> 100 µM"],
  ["CN(C)c1ccc(N=Nc2ccccn2)cc1", "> 100 µM"],
  ["c1cnc2[nH]cc(-c3csc(-c4cn(CCCCN5CCOCC5)c5ccccc45)n3)c2c1", "5.69 µM"],
  ["COC(=O)c1cc(C#Cc2cc(OC)ccc2OC)ccc1OC", "> 100 µM"],
  ["O=S1C2=C(Cc3ccccc3)C(Cc3ccccc3)=C1CCc1cccc(c1)CC2", "21.4 µM"],
  ["O=NNc1nc(-c2cccnc2)nc2ccccc12", "> 100 µM"]
]}

The compound identified as COc1cc(Nc2nc(N[C@H]3CCCC[C@@H]3N)nc3cc[nH]c(=O)c23)cc(OC)c1 registered its TGI at 20 µM

// recorded TGI for CC1=C(O)C(=O)C2C(=O)C1C(C)C2c1ccc(Cl)cc1 (stereo not drawn) : > 100 µM

Measured TGI, CC[C@@H](/C=C\CCC1(C[C@H](O)CCC=C(C)C)OCCO1)O[Si](C(C)C)(C(C)C)C(C)C : > 100 µM

Form: compound = CC(=O)NC1=C(C)C(=O)c2c(nc3n2CCC3O)C1=N (stereo not drawn) ; TGI = 14.6 µM

Lookup result for O=C1C2=C(c3ccccc31)C(c1ccccc1)NC(=S)N2 (stereo not drawn) ; measured TGI: > 100 µM

====

- System: SNB-75 CNS
- Experimental protocol: NCI tumour cell line growth inhibition, 48 h
The following molecules are listed with their measured log10 TGI values.
Hi team, quick reminder: these entries are log10 of TGI (µM).

Recorded log10 TGI, per entry:
{"columns": ["Molecule", "log10 TGI"],
 "data": [
  ["COC(=O)c1c(C)cccc1/C=C1\\Cc2cc(C)cc(C)c2C1=O", 1.58],
  ["N#Cc1c(NC(=S)NC(=O)c2ccccc2)nc2c(c1-c1ccccc1)CCCC2", 1.62]
]}

response.value for CSC1=C(c2ccc(Cl)cc2)SC(N2CCCCC2)N1c1ccc([N+](=O)[O-])cc1 (stereo not given) (field: log10 TGI) = 1.98

Entry under test: S=c1[nH]c(=S)c2cc(Sc3ccc4[nH]c(=S)[nH]c(=S)c4c3)ccc2[nH]1 . Its log10 TGI was 1.63

// Brc1ccccc1-c1ncc(-c2ccccc2)o1 : log10 TGI value = 1.78

# molecule Cc1ccc(N=C2C(=O)C3=C(OC(C)(C)CC3)c3ccccc32)cc1 ; its log10 TGI = 0.40

The reported log10 TGI of the molecule CC(C)(C)c1ccc(S(=O)(=O)N[C@H]2CC[C@H]3[C@@H]4CCc5cc(OS(=O)(=O)O)ccc5[C@H]4CC[C@]23C)cc1 was 0.79

GET /value?item= C=C1CC[C@@H]2[C@](C)(COC(C)=O)[C@H](OC(C)=O)CC[C@@]2(C)[C@@H]1CC(Nc1ccc(S(=O)(=O)Nc2nccc(C)n2)cc1)C1=CCOC1=O (stereo not given in full) &field=log10 TGI returns 1.17

Provenance of the data: PubChem BioAssay (NCI)
